assay: protein stability index of a GFP-peptide fusion (yeast GPS) (PSI 1-4); higher = more stable; sorted into four equal gates, so the index is relative within each strain; conditions: san1∆
Known protein stability index of a selection of sequences

Solved entries:
BIOPOLYMER SEQUENCE	protein stability index
GNMGITTEMLDKLMVTS [MED6]	3.26
WIKFLLHTLYLRPASAI [SSN8]	1.25
NWIKPSDSEIPPLLVYK [PRP8]	2.21
DWEKYKAPLEDDDKKPD [RPT1]	2.96
LSTRAGGLGLNLQTADT [SNF2]	2.7

Moving on to another sequence below.
Returns the measured protein stability index for the input sequence. Input: NNPQVVNAITVAQQQVQ [SNF5]
1.42

* * *

experiment: protein stability index of a GFP-peptide fusion (yeast GPS) (PSI 1-4); higher = more stable; sorted into four equal gates, so the index is relative within each strain; settings: pdr5∆
I would appreciate it if you labelled entries true (1) when protein stability index is 2 or higher, otherwise false (0).

Answered examples (3):
BIOPOLYMER SEQUENCE	CATEGORY
LGITGLATDVTTLNEMF [PUP3]	true (1)
SSFNKRSKFLSTVAKFL [IRR1]	true (1)
GTFTADYSKPNLPPHYA [SSN2]	true (1)

Quick check: does NWYKSKKKAFTKYSAKY [RPL3] have protein stability index greater than or equal to 2?
true (1)

Decide: is the reported value of protein stability index for NNETEQLKAEEKKILNQ [SMC1] equal to or greater than 2?
true (1)

Could you tell me if the measured protein stability index of FLSLLNLATKGMVKLNE [REC8] reaches 2 or more?
false (0)

* * *

test: protein stability index of a GFP-peptide fusion (yeast GPS) (PSI 1-4); higher = more stable; sorted into four equal gates, so the index is relative within each strain; conditions: ubr1∆
Recorded protein stability index, one value per entry.
No unit in the answer, please; the number alone is enough.

Recorded results for 2 sequences are shown here.
BIOPOLYMER SEQUENCE	protein stability index
ILLEPIYEVDITVHAPL [SNU114]	2.47
QDRDRFFLRDTLLWNKN [SNF5]	3

Now look at this entry.
Endpoint output: protein stability index of TAELIKELKEKEAAESP [PUP2] . Value?
3.22

* * *

experiment: protein stability index of a GFP-peptide fusion (yeast GPS) (PSI 1-4); higher = more stable; sorted into four equal gates, so the index is relative within each strain; details: doa10∆
VALUE KIND: protein stability index
Form rule: numeric answer, no unit written next to it.

BIOPOLYMER SEQUENCE	protein stability index
FRHHVQIQQQQQKQQQQ [SNF5]	2.71

Look up protein stability index for this sequence: RTGPKALPDAVTIIEPK [RPS3]
2.97

Report protein stability index for SLLLAHFFSKSCSFFAK [NUT1] please.
1.83

Using the record for PLPICHANSVVALTGLL [YML031W/NDC1] , report its protein stability index.
3.13

Item under review: RLQQGRRLPMTMFTAEQ [SNF2] . Reported protein stability index?
3.09

Recorded protein stability index for SSPDTMKLTDLLSLINS [SNF12] , please?
2.69

Any idea what its protein stability index is? The sequence is FQEGVVVAKKDFNQAKH [RPS10A]
2.1

Looking for the measured protein stability index of SFLGYLRYVKQIEGPFL [ISW2] , can you help?
2.28

What does the data say about its protein stability index? Entry: STTMDGANDLGFTASVS [MED1]
3.08

Which measured protein stability index value corresponds to LNIDWSTTGDNGELDLS [MED2] ?
2.2

Please look up its protein stability index: EQLSPQDVLQMLGRAGR [BRR2]
3.14

I have this sequence here, EKVTRYNRHKLQELIVN [RPO31] , and I need its recorded protein stability index.
1.74

Tell me the measured protein stability index of FGVPNSSKNETSKPVFS [YLR335W/NUP2] , please.
2.32

Reported protein stability index for LKSHYYQTCKNSEYLKR [SMC2] : what is it?
1.54

Requested read-out: protein stability index. Entry: LNEAQGHIVSLELTTGA [SMD3]
1.47

Which protein stability index is listed for ENAYDNPLADAEEALEP [PRE4] ?
3.1

Record request: protein stability index value, item ADVLAMAKVEVNLAAIP [RIP1]
1.84

Tell me the measured protein stability index of QDRHVIFLAERRILPKP [RPS7A] , please.
2.53
